All values here come from ChEMBL document CHEMBL4033777.

assay: Cmax in tumor of NIH-III mouse xenografted with human HCT116 cells at 2.20 mmol/kg, iv administered as single dose by HPLC analysis; type: ADME, organism-based, Neoplasm; design: dose 2.2 mmol/kg, route intravenous; conditions: in vivo
Please provide measured Cmax for the entries that follow.

Summary for this compound, O=[N+]([O-])c1nccn1CCS(=O)(=O)NCCOP(=O)(O)O : Cmax is 390 µM

Notebook: O=[N+]([O-])c1cncn1CS(=O)(=O)NCCOP(=O)(O)O , Cmax read as 140 µM

Just so you know, measured Cmax for O=[N+]([O-])c1nccn1CS(=O)(=O)NCCOP(=O)(O)O came out at 320 µM

Form field Cmax, entry O=C(Cn1ccnc1[N+](=O)[O-])NCCO [ETANIDAZOLE] : 800 µM
